Data provenance is PubChem BioAssay.

assay: inhibitors of mutant huntingtin aggregation, primary screen, imaging, exon1htt(103Q)mCFP cells, high-content imaging (AID 483); conditions: exon1htt(103Q)mCFP cell line, aggregate imaging, at 2 µM; measured here: cell count, toxicity;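 note: compound exposure lasted 3 days before fixation; percent of the per-plate median nuclei count of sample wells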
Quick reference: nuclei count of the listed items.
Numbers only here, please. The scale is %.

Before answering, review these 8 worked examples.
Compound	nuclei count / %
COc1ccc(C2CC(c3cccs3)n3nc(N)nc3N2)cc1 (stereo unspecified)	122
CCC(C)(C(=O)NC1CCCCC1)N(Cc1ccco1)C(=O)c1cnccn1 (stereo unspecified)	89.9
COc1ccc(NC(=O)CN(c2ccc(C)cc2)S(C)(=O)=O)c(OC)c1	92.5
CCCCCC1CC(CC(=O)O)C(=O)O1 (stereo unspecified)	80.6
COc1ccc(-c2nc(CSCC(=O)NCc3ccc4c(c3)OCO4)c(C)o2)cc1OC	104
COc1cc2c(cc1OC)CN(CC(=O)Nc1cccc(C)c1)CC2	98.6
CC(NC(=O)Nc1ccccc1)C(c1cccs1)N1CCOCC1 (stereo unspecified)	97.6
S=c1[nH]nc(-c2cccc(Br)c2)o1	110

Recorded nuclei count of CCCCn1nnc(NC(=O)c2cc3ccccc3o2)n1 , please. 106

Follow-up entry: C=CCn1c(=O)c2ccccc2n2c(SCC(=O)Nc3cc(C)on3)nnc12 113

Follow-up entry: COc1ccc(Br)cc1CNC(=O)CCc1nc(-c2ccc(C)cc2)no1 98.4

====

test: inhibitors of E-selectin induction by TNFa, primary screen, imaging, HUVEC, immunofluorescence, MLSMR starter and 10KST1 sets (AID 487); conditions: HUVEC TNFalpha-induced E-selectin immunofluorescence imaging, at 2 µM; stronger effect = higher value;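 note: signal is fraction of cell area covered by stained E-selectin grains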
Calls of active or inactive are those of the source.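 The calls were made as follows: active = visually confirmed hit in the image check and inhibition above 20%; inconclusive = visually confirmed hit but inhibition not above 20%; inactive = no visual hit in the image check.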
Measured Property: inhibition

Molecule	Measured Property	Recorded Value
CCCOC(=O)C1C2C=CC3(CN(c4cccc(Cl)c4)C(=O)C13)O2 (stereo unspecified)	inhibition	-55.3% (inactive)
O=C(c1ccco1)N1CCN(C(=O)C2CC(c3ccc(F)cc3)=NO2)CC1 (stereo unspecified)	inhibition	-12.7% (inactive)
COC(=O)c1ccccc1NC(=O)CC(NCc1ccccc1)C(=O)O (stereo unspecified)	inhibition	-21.4% (inactive)
COc1ccc(C)cc1S(=O)(=O)N(CC(=O)O)c1ccccc1	inhibition	-90.2% (inactive)

Recorded inhibition of Cc1cc(-n2c(C)cc(C(=O)CSc3nnnn3-c3ccc(Cl)cc3)c2C)no1 , please. -55.8% (inactive)

Follow-up entry: COc1ccc(S(=O)(=O)Nc2ccccc2OC)cc1C -26.6% (inactive)

Follow-up entry: O=C(CCN1C(=O)C2C3C=CC(C3)C2C1=O)N1CCN(c2ccccc2Cl)CC1 (stereo unspecified) 2.5% (inactive)

Follow-up entry: CC(C)COc1ccc(C(=O)OCCN2CCOCC2)c(O)c1 5.6% (inactive)

====

Quick reference: NADPH fluorescence slope of the listed items.
molecular target: Voltage-gated potassium channel subunit beta-2 (Rattus norvegicus); test: KvBeta positive modulators, primary screen, biochemical, NADPH fluorescence (AID 623); details: Recombinant KvBeta, NADPH fluorescence decrease slope, 10 min; at 10 µM; stronger effect = lower value;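 note: fluorescence intensity change per second fitted from 20 to 320 s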
Reply briefly: the number, and no unit.

Compound	Experimental Target	Recorded Value
CCN1C(=O)c2ccccc2S(=O)c2ccc(C(=O)NC3CC3)cc21 (stereo unspecified)	Voltage-gated potassium channel subunit beta-2 (Rattus norvegicus)	-2.6e-05
O=c1c2ccccc2nc(SCc2cccc(F)c2)n1Cc1ccco1	Voltage-gated potassium channel subunit beta-2 (Rattus norvegicus)	2.5e-05
N#CCOc1nc(N2CCOCC2)nc(N2CCOCC2)n1	Voltage-gated potassium channel subunit beta-2 (Rattus norvegicus)	-4.5e-05

Recorded NADPH fluorescence slope of Cc1ccc(-n2ncc3c(NCc4cccnc4)ncnc32)c(C)c1 , please. -4.3e-05

Follow-up entry: O=C(CSc1nc2ccccc2s1)Nn1cnnc1 -7.8e-05

Follow-up entry: CCOc1ccccc1N1Cc2cc(C)c(C)cc2C1 1.2e-05

====

Quick reference: inhibition of the listed items.
assay: inhibitors of poly I:C-induced TLR3 signaling, primary screen, cell-based, poly I:C stimulus, luciferase, 10K MLSCN set (AID 602277); conditions: HEK293-TLR3 RL24 IRF3 luciferase reporter, at 10 µM, stronger effect = higher value
Active and inactive are the calls of the source.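 How the source made its calls: active means inhibition of the reporter signal at or above 50%; inactive means inhibition below 50%.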

Before answering, review these 6 worked examples.
Molecule	inhibition
Cc1ccc(-n2nnnc2SCC(=O)Nc2c(C)n(C)n(-c3ccccc3)c2=O)cc1	-12.3% (inactive)
CCCCS(=O)(=O)NC1=NCN(C2CCN(Cc3ccccc3)CC2)CN1	18.7% (inactive)
COc1ccc(CC(=O)NCc2nnc(SCC(=O)Nc3nccs3)n2-c2ccccc2)cc1	33.9% (inactive)
O=C1CC(c2ccccc2)Cc2nc(N3CCc4ccccc43)ncc21 (stereo not given)	2.35% (inactive)
Cc1sc(NC(=O)CSc2nnc(COc3ccccc3)n2C)c(C#N)c1C	-13.7% (inactive)
CCOC(=O)C(NC(C)=O)(Nc1ccc(S(=O)(=O)Nc2nccs2)cc1)C(F)(F)F (stereo not given)	30.2% (inactive)

Recorded inhibition of COc1cc(OC)c(C2C(C#N)=C(N)OC3=C2C(=O)CC(C)(C)C3)cc1OC (stereo not given) , please. 5.85% (inactive)

Follow-up entry: CCn1c(=O)cc(OCC(=O)NC2CCCCC2)c2ccccc21 23.9% (inactive)

Follow-up entry: N#Cc1c(N)nc2c(c1-c1ccncc1)CCCCC2 12.3% (inactive)

Follow-up entry: Cc1ccc(-c2ccc(SCC(=O)Nc3nonc3C)nn2)cc1 15.8% (inactive)

====

target: Voltage-gated potassium channel subunit beta-2 (Rattus norvegicus); experiment: KvBeta positive modulators, primary screen, biochemical, NADPH fluorescence (AID 623); conditions: Recombinant KvBeta, NADPH fluorescence decrease slope, 10 min; at 10 µM; stronger effect = lower value;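 note: fluorescence intensity change per second fitted from 20 to 320 s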
Measured Property: NADPH fluorescence slope
Reply briefly: the number, and no unit.

Before answering, review these 5 worked examples.
Molecule	Experimental Target	NADPH fluorescence slope
S=c1[nH]nc(-c2cccc(Br)c2)o1	Voltage-gated potassium channel subunit beta-2 (Rattus norvegicus)	1.9e-05
O=C(CC(c1ccc(F)cc1)c1ccco1)N1CCCC1 (configuration not stated)	Voltage-gated potassium channel subunit beta-2 (Rattus norvegicus)	-1.7e-05
Cn1c(=O)c2nc(Cl)n(Cc3ccc(Cl)cc3Cl)c2n(C)c1=O	Voltage-gated potassium channel subunit beta-2 (Rattus norvegicus)	-4.5e-05
C=CCc1cccc(CNc2nc3ccccc3n2C(C)C)c1O	Voltage-gated potassium channel subunit beta-2 (Rattus norvegicus)	-9.2e-05
CCOC(=O)N1CCN(C(=O)CSc2nnc(-c3cc(OC)cc(OC)c3)o2)CC1	Voltage-gated potassium channel subunit beta-2 (Rattus norvegicus)	-5.6e-05

Recorded NADPH fluorescence slope of COc1ccccc1-c1c(C)oc2c(CN3CCN(C)CC3)c(O)ccc2c1=O , please. 1.6e-05

Follow-up entry: COc1cc(OC)c(NC(=O)c2ccco2)cc1Cl -4.6e-05

Follow-up entry: O=C(OCCN1CCOCC1)c1ccc2c(c1)OCCO2 -6.5e-05

Follow-up entry: CCOC(=O)N1CCC(NC(=O)CN2C(=O)CCSc3ccccc32)CC1 -3.1e-05

====

assay: inhibitors of TNFa-induced NFkB p65 translocation, primary screen, imaging, HUVEC, MLSMR starter and 10KST1 sets (AID 438); settings: HUVEC TNFa-induced p65 nuclear translocation; at 2 µM, stronger effect = higher value, 0% TNFa-plus-vehicle, 100% no-TNFa wells;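 note: compound added about 3h40 before a 20 min TNFalpha stimulation; signal is the nuclear over cytoplasmic p65 intensity ratio per well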
Measured Property: inhibition (%)
Numbers only here, please. The scale is %.

Before answering, review these 5 worked examples.
Compound	Units Label	inhibition
c1ccc(-n2ncc3c(NC4CCCCCC4)ncnc32)cc1	%	-0.3
O=c1ccc2cc3c([nH]c4ccc(Br)cc43)oc-2c1O	%	4.7
C=CCOC(=O)C1=C(C)NC(SCC(=O)Nc2ccc(C)c(Cl)c2)=C(C#N)C1c1ccco1 (stereo unspecified)	%	-12.4
CCCC(CCC(=O)Nc1ccc(C(=O)OC)cc1)C(=O)O (stereo unspecified)	%	-5.3
O=C(CN1C(=O)c2ccccc2S1(=O)=O)NCc1ccccc1Cl	%	4.2

Recorded inhibition of O=C(NCc1ccco1)C1(S(=O)(=O)c2ccc(Cl)cc2)CC1 , please. 1.1

Follow-up entry: CCOC(=O)C1=C(C)N=C2SCCC(=O)N2C1c1cc(Br)ccc1OC (stereo unspecified) 2.7

Follow-up entry: O=C(NCc1ccccn1)c1coc(=O)c(Br)c1 -1

Follow-up entry: Cc1cc(NC(=O)CSc2nccn2-c2ccc(F)cc2)no1 -0.3

Follow-up entry: Cc1nn(C)c(C)c1CN(C)C(=O)c1cc2nc(-c3ccco3)cc(C(F)(F)F)n2n1 5.7

Follow-up entry: O=C(c1ccco1)N1CCN(c2cccc(Cl)c2)CC1 -1.9

====

Quick reference: fluorescence slope of the listed items.
biological target: Voltage-gated potassium channel subunit beta-2 (Rattus norvegicus); assay: KvBeta enzyme negative modulators, primary screen, biochemical, NADPH fluorescence (AID 622); settings: recombinant KvBeta, 4-cyanobenzaldehyde reduction, at 10 µM, stronger effect = higher value;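 note: slope of raw intensity against log time taken from 70 to 1610 s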
Reply briefly: the number, and no unit.

Before answering, review these 6 worked examples.
Molecule	Experimental Target	fluorescence slope
O=C(CN1C(=O)c2ccccc2S1(=O)=O)NCc1ccccn1	Voltage-gated potassium channel subunit beta-2 (Rattus norvegicus)	-0.61
COCCn1nnnc1C(c1cccs1)N1CCN(c2cc(C)ccc2C)CC1 (stereo unspecified)	Voltage-gated potassium channel subunit beta-2 (Rattus norvegicus)	-0.618
Cc1ccc2c(C)nc(NC3=NCN(C(C)C)CN3)nc2c1	Voltage-gated potassium channel subunit beta-2 (Rattus norvegicus)	-0.543
CC1(C(=O)CSc2ncn[nH]2)CCC(=O)O1 (stereo unspecified)	Voltage-gated potassium channel subunit beta-2 (Rattus norvegicus)	-0.544
COc1cc2c(cc1NC(=O)COC(=O)Cn1cnc3ccccc31)oc1ccccc12	Voltage-gated potassium channel subunit beta-2 (Rattus norvegicus)	-0.533
CCOC(=O)C1CCN(c2c(NCCN3CCN(c4ccccc4)CC3)c(=O)c2=O)CC1	Voltage-gated potassium channel subunit beta-2 (Rattus norvegicus)	-0.6

Recorded fluorescence slope of Cc1csc(NC(=O)CSc2nnc(Cc3cccn3C)n2-c2ccc(F)cc2)n1 , please. -0.57

Follow-up entry: Cn1c(SCC(=O)N2CCOCC2)nnc1-c1cnccn1 -0.396

Follow-up entry: Cc1cc(C)n2cc(CSc3nnnn3-c3ccc(Cl)cc3)nc2n1 -0.517

Follow-up entry: N#Cc1ccccc1NC(=O)CSc1nnc(-c2ccccc2)n1-c1ccccc1 -0.603

Follow-up entry: CCN(CC)CCNc1ncnc2c1[nH]c1ccc(OC)cc12 -0.236
